# assay_system: T1, PUF4 RNA-binding domain (Saccharomyces cerevisiae, UniProt P25339 537-888)
# T1 sequence: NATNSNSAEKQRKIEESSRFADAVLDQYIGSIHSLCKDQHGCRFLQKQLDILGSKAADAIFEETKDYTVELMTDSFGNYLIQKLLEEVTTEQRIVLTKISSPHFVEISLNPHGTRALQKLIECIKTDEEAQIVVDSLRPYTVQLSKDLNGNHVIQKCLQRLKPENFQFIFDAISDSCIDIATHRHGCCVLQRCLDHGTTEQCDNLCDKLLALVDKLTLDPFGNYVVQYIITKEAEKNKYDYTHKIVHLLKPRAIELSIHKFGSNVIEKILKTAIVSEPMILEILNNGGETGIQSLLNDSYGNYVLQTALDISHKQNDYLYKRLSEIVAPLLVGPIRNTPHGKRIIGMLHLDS
# method_notes: Mg; RNA-MaP; 20 mM Na-HEPES pH 7.4, 30 mM KOAc, 0.75 mM MgCl2, 0.1% Tween-20, 5% glycerol, 0.1 mg/mL BSA, 2 mM DTT; 25 C; 0.0125-409.6 nM protein
# experimental_context: tags: N-His6-TEV cleaved; C-SNAP kept, Cy3B-labelled; label: tethered on chip by stalled RNA polymerase
Kd values for the binders below.
# unit: nM | format: bare number

Study these solved cases before continuing.
{"binder": "ACAAACACUAUAUUAUUAAGACAAAC (ssRNA) [Id_ii_S3_P5E.3_K5.2_C5.2_[C-2A]_[T-1C]_H5.2_A5.1_F5.1_T5.2_[T11A]_[A12G]]", "value_measured": 626}
{"binder": "Ib_S2_P3E.1_K3.1_C3.1_H3.1_[T1C]_A3.1_[A6G]_F3.1_T3.1 (ssRNA) RNA: UUUGAUUAAUAUGAUAUCGUUCUUUCUCGUAUGUAUUCUUUCUCGAUAUCAUAUUAAUCUUU", "value_measured": 75.7}

Consider now this further binder.
Q) Entry Id_ii_S4_P3E.4_K3.3_C3.2_[C-2T]_H3.3_A3.1_F3.1_T3.2_[T9A]_[A10C] (ssRNA) RNA: UUUGACAACUGAUCGUUCUUUCUUUACACUAUAACUUCUUUCUCGAUCAGUUGUCUUU has what Kd?
A) 935
